Test system: K562 CRISPRi cells
Test: Perturb-seq pooled growth measurement (sgRNA counts, growth phenotype γ, relative activity)
Format: cell-based, human
Conditions: pooled growth phenotype γ of the Perturb-seq sgRNA, day 5, K562 CRISPRi cells
Below, each of the substances is paired with its reported gamma_day5 value.

Solved cases (4 shown):
Looking up TUBB_ + _30688126.23-P1_06 (guide GCGGCAGGACGGTTCTGAGA; listed as DNA, chemistry not fully specified) , I see its gamma_day5 listed as −0.7308

ATP5E_ −_57607036.23-P1P2_01 (guide GGTGTCCTGGGGCACTCTGT; listed as DNA, chemistry not fully specified) has a reported gamma_day5 of −0.2097

Kindly note the recorded gamma_day5 for MTOR_ + _11322547.23-P1P2_05 (guide GGGCAGGGGGCTTGAAGCGG; listed as DNA, chemistry not fully specified) , which is −0.4313

Recorded result, RPL9_ + _39460483.23-P1P2_00 (guide GGATGTTTCTGTGCTCGTGG; listed as DNA, chemistry not fully specified) , gamma_day5: −1.113

---
For this substance ( HSPA5_ + _128003624.23-P1P2_01 (guide GAACCGAGTAGGCGACGGTG; listed as DNA, chemistry not fully specified) ), measured gamma_day5 is −0.6373

Lab book: gamma_day5 of COX11_ + _53045977.23-P1P2_10 (guide GGCTCTGGCGTCCCGGATGG; listed as DNA, chemistry not fully specified) noted as −0.1247

Entry under test: RPS14_ + _149829238.23-P1P2_13 (guide GAGGCCCGGGCGCGACAGTC; listed as DNA, chemistry not fully specified) . Its gamma_day5 was −0.2119

// field: gamma_day5; key: POLR2H_ + _184081251.23-P1P2_08 (guide GGGGCCACGCGAGCAGCAGA; listed as DNA, chemistry not fully specified) ; value = −0.5208

Quick note, gamma_day5 for GNB2L1_ + _180670873.23-P1P2_13 (guide GTGCAAGGCGGCGGCGGGAG; listed as DNA, chemistry not fully specified) landed at −0.2097

Query MTOR_ + _11322547.23-P1P2_00 (guide GGGCAGGGGGCCTGAAGCGG; listed as DNA, chemistry not fully specified) yields gamma_day5 of −0.6872

Consider GNB2L1_ + _180670873.23-P1P2_02 (guide GTGCAAGACGGCGGCAGGAG; listed as DNA, chemistry not fully specified) . Its measured gamma_day5 is −0.1438

response.value for RAN_ + _131356438.23-P1P2_03 (guide GGGGGTCGCTGCGCTTAGGG; listed as DNA, chemistry not fully specified) (field: gamma_day5) = −0.2162
